src = paper PMC5540273

- Tested on: CAMK1B
- condition details: concentration: 1 μM, replicates: in singlicate; n = 1;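 note: KINOMEscan kinase panel screen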
recorded endpoint: %Inh (%)
The answer is to be given in %; state only the numeric part.

Nc1ncnc2c1ncn2-c1ccc(Cl)cc1 : 3
COc1cc(OC)cc(-c2cc3cnc(N)nc3nc2NC(=O)NC(C)(C)C)c1 : 0
Nc1ncnc2c1ncn2-c1cccc(F)c1 : 0
Fc1cccc(CSc2nnc(-c3ccc4c(c3)CCO4)o2)c1 : 0
CCC(=O)c1c(-c2ccccc2)c2cc(Cl)ccc2c(=O)n1Cc1ccc(C(=O)O)cc1 : 0

# get_value(readout='%Inh', item= Cc1cccc(-c2cc(-c3c[nH]nc3-c3ccccn3)ccn2)c1 )
5

Proceed to CC(C)(C)c1ccc(C(=O)Nc2cn3cc(-c4ccccc4)ccc3n2)cc1
6

Proceed to COc1cc2ncn(-c3cc(OCc4ccncc4Br)c(C(N)=O)s3)c2cc1OC
0

Proceed to CCn1c(-c2nonc2N)nc2ccccc21
8

Proceed to Nc1nc(N)c2nc(-c3ccccc3)[nH]c2n1
18

----------
- System: MAP3K1
- condition details: concentration: 1 μM, replicates: in singlicate; n = 1
Below is a list of entries, each paired with its recorded %Inh value.
Write the numeric value and follow it with the unit.

Below, each entry is followed by its recorded %Inh result.
COc1cc(Nc2nccc(N3CCC(NC(=O)C4COc5ccccc5O4)C3)n2)cc(OC)c1OC (stereo not shown) : 2%
Nc1nc(-c2ccccc2F)c(-c2ccnc3ccccc23)s1 : 3%
Nc1ncnc2c1ncn2-c1cccc2ccccc12 : 5%

# get_value(readout='%Inh', item= COc1ccc(CNC(=O)NC2CCN(c3ccnc(Nc4ccc(F)cc4)n3)C2)cc1 (stereo not shown) )
2%

Proceed to COc1cc(OC)cc(-c2cc3cnc(N)nc3nc2NC(=O)NC(C)(C)C)c1
0%

Proceed to Nc1ncnc2c1ncn2-c1cccc(F)c1
16%

Proceed to Cc1ccccc1COc1cc(-n2cnc3cc(Cl)ccc32)sc1C(N)=O
32%

Proceed to CCc1nc(-c2cccc(C)c2)c(-c2ccncc2)s1
0%

Proceed to COC(=O)c1c(-c2ccccc2)c2cc(Br)ccc2c(=O)n1Cc1ccc(S(C)(=O)=O)cc1
27%

Proceed to O=C(NCc1cccs1)c1cc(C(=O)c2c(Cl)cccc2Cl)c[nH]1
0%

----------
- System: BRAF
- condition details: concentration: 1 μM, replicates: in singlicate; n = 1
Below is a list of entries, each paired with its recorded %Inh value.
The answer is to be given in %; state only the numeric part.

Below, each entry is followed by its recorded %Inh result.
COc1cc2ncn(-c3cc(OCc4ccncc4)c(C(N)=O)s3)c2cc1OC : 0
Cc1nnc(-c2ccc3ncn(-c4ccc(S(C)=O)cc4)c3c2)o1 (centres unmarked) : 0

// fetch BRAF %Inh for CCC(=O)c1c(-c2ccccc2)c2cc(Cl)ccc2c(=O)n1Cc1cc(S(C)(=O)=O)n(CC(N)=O)n1
0

Proceed to O=C(Nc1ccc2c(c1)OCO2)NC1CCN(c2ccnc(NCc3ccc(F)cc3)n2)CC1
0

Proceed to Fc1cccc(CSc2nnc(-c3ccc4c(c3)CCO4)o2)c1
7

----------
Below is a list of entries, each paired with its recorded %Inh value.
- Tested on: PDPK1
- condition details: concentration: 1 μM, replicates: in singlicate; n = 1

Below, each entry is followed by its recorded %Inh result.
Nc1n[nH]c2nnc(-c3ccccc3)c(-c3ccccc3)c12 : 3%
Nc1ncnc2c1ncn2-c1cccc(F)c1 : 7%
CCC(=O)c1c(-c2ccccc2)c2cc(Cl)ccc2c(=O)n1Cc1cc(S(C)(=O)=O)n(CCC(C)(C)O)n1 : 0%

Read the next record carefully.
# get_value(readout='%Inh', item= C[C@@H]1CC[C@H](C(=O)NC2CCCCC2)CN1c1cc(-c2ccc3c(N)n[nH]c3c2)nc(N)n1 )
95.3%

----------
Below is a list of entries, each paired with its recorded %Inh value.
- Test system: BRSK2
- condition details: concentration: 1 μM, replicates: in singlicate; n = 1
The answer is to be given in %; state only the numeric part.

Cc1c(Cn2c(C)nn3c(=O)cc(N4CCO[C@H](C)C4)nc23)cccc1C(F)(F)F [GSK2373690] : 0

# get_value(readout='%Inh', item= Nc1ncnc2c1ncn2-c1cccc2ccccc12 [SKF-97184] )
22

Proceed to Cc1ccc(-c2ccc3c(ccc4sc5c(c43)NC[C@@H](C)N=C5N(C)C)n2)cn1
0

Proceed to Cl.c1ccc(Cn2cnc3cc(Nc4ncnc5ccccc45)ccc32)cc1 [GW272142]
0

Proceed to Cc1nnc(-c2ccc3ncn(-c4ccc(S(C)=O)cc4)c3c2)o1 (stereo not shown)
0

Proceed to Cc1nc(N(C)[C@H]2CN(C(=O)CC#N)CC[C@H]2C)c2cc[nH]c2n1
0

Proceed to Cc1cccc(-c2nc(Nc3ccc4c(cnn4C)c3)c3ccccc3n2)n1 [GW876731]
2

Proceed to Nc1ncnc2c1ncn2-c1cccc(F)c1 [SKF-97560]
5

Proceed to COc1cc(Nc2ccnc3ccc(C(F)(F)F)cc23)cc(OC)c1OC [GW577382]
10

Proceed to O=C(Nc1n[nH]c2nc(-c3ccccc3)c(Br)cc12)C1CC1 [SB-708998]
32

Proceed to Fc1cccc(CSc2nnc(-c3ccc4c(c3)CCO4)o2)c1
0

----------
- System: WEE2
- condition details: concentration: 1 μM, replicates: in singlicate; n = 1
recorded endpoint: %Inh (%)
The answer is to be given in %; state only the numeric part.

COc1ccc(-c2cc3c(C)nc(N)nc3n([C@H]3CC[C@H](O)CC3)c2=O)cn1 : 0
COC(=O)c1c(-c2ccccc2)c2cc(Br)ccc2c(=O)n1Cc1ccc(NC(=O)CCC(=O)O)cc1 : 21
Nc1ncnc2c1ncn2-c1cccc(F)c1 [SKF-97560] : 0
Nc1n[nH]c2nnc(-c3ccccc3)c(-c3ccccc3)c12 [GW554060] : 9

// fetch WEE2 %Inh for COc1ccc(CNC(=O)NC2CCN(c3ccnc(Nc4ccc(F)cc4)n3)C2)cc1 (stereo not shown) [GSK1379706]
9

Proceed to CCCNC(=O)Nc1ccc(Oc2ncnc3ccn(C)c23)cc1
13

Proceed to O=C(Nc1ccc2c(c1)OCO2)NC1CCN(c2ccnc(NCc3ccc(F)cc3)n2)CC1 [GSK1379859]
0

Proceed to CCS(=O)c1ccc(-c2coc3ccc(-c4nnc(C)o4)cc23)cc1 (stereo not shown)
0

Proceed to FC(F)(F)c1ccc(-c2ncn(CCCN3CCOCC3)c2-c2ccncc2)cc1 [SB-217780]
34

Proceed to Fc1cccc(CSc2nnc(-c3ccc4c(c3)CCO4)o2)c1
16

Proceed to O=C(NCCNc1ccnc(Nc2ccc(F)cc2)n1)Nc1ccc2c(c1)OCO2 [GSK1379882]
6

----------
Below is a list of entries, each paired with its recorded %Inh value.
- Tested on: PCTK1
- Construct: gene CDK16
- condition details: concentration: 1 μM, replicates: in singlicate; n = 1
The answer is to be given in %; state only the numeric part.

Nc1n[nH]c2ncc(-c3ccccc3)cc12 : 3
CCC(=O)c1c(-c2ccccc2)c2cc(Cl)ccc2c(=O)n1Cc1cc(S(C)(=O)=O)n(CCC(C)(C)O)n1 : 29
CCS(=O)c1ccc(-c2coc3ccc(-c4nnc(C)o4)cc23)cc1 (centres unmarked) : 0

# get_value(readout='%Inh', item= CN1C(=O)C(Nc2ccccc2)=C(c2ccccc2)C1=O )
0

Proceed to CC(C)(C)c1ccc(C(=O)Nc2cn3cc(-c4ccccc4)ccc3n2)cc1
0

Proceed to CCC(=O)c1c(-c2ccccc2)c2cc(Cl)ccc2c(=O)n1Cc1cc(S(C)(=O)=O)n(CC(F)F)n1
0

Proceed to COc1cc2ncn(-c3cc(OCc4ccc(S(C)(=O)=O)cc4)c(C(N)=O)s3)c2cc1OC
19

Proceed to COc1cc(Nc2nccc(N3CCC(NC(=O)C(C)c4ccc(Cl)cc4)C3)n2)cc(OC)c1OC (centres unmarked)
0

----------
Below is a list of entries, each paired with its recorded %Inh value.
- System: MYLK2
- condition details: concentration: 1 μM, replicates: in singlicate; n = 1
The answer is to be given in %; state only the numeric part.

Below, each entry is followed by its recorded %Inh result.
COc1cc2nccc(Nc3cccc(Oc4ccccc4)c3)c2cc1OC.Cl [GW284543] : 0
CCC(=O)c1c(-c2ccccc2)c2cc(Cl)ccc2c(=O)n1Cc1cc(S(C)(=O)=O)n(CC(N)=O)n1 : 0
COc1cccc(C2=C(Nc3cccc(C(=O)O)c3)C(=O)NC2=O)c1 [SB-390770] : 38
COc1ccc(Nc2nccc(N3CCC(NS(=O)(=O)c4ccc(NC(C)=O)cc4)C3)n2)cc1 (stereo not drawn) [GSK1379729] : 29

# get_value(readout='%Inh', item= Nc1n[nH]c2nnc(-c3ccccc3)c(-c3ccccc3)c12 [GW554060] )
0

Proceed to O=C1NC(=O)C(c2ccccc2)=C1Nc1cccc(O)c1 [SB-390534]
16

Proceed to Nc1n[nH]c2ncc(-c3ccccc3)cc12 [SB-517081]
15

Proceed to O=C(Nc1n[nH]c2cc(-c3ccccc3F)ccc12)C1CC1 [SB-733371]
90

Proceed to Nc1ncnc2c1ncn2-c1cccc(F)c1 [SKF-97560]
0
